Biological target: Replicase polyprotein 1ab (Middle East respiratory syndrome-related coronavirus (isolate UnitedKingdom/H123990006/2012) (Betacoronavirus England 1) (Humancoronavirus EMC))
Sequence (K9N7C7 3248-3553 limits assumed): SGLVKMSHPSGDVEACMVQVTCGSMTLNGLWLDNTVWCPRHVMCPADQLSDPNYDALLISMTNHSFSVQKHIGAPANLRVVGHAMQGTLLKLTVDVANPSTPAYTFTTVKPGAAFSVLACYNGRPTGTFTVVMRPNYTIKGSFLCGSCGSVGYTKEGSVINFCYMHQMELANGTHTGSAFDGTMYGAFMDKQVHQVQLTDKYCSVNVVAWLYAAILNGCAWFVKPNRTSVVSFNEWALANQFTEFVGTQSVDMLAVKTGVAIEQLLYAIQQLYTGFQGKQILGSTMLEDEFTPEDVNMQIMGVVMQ
Test: Inhibition of Middle East respiratory syndrome-related coronavirus 3CL protease using Dabcyl-KTSAVLQ/SGFRKME-Edans as substrate incubated for 30 mins followed by substrate addition measured after 1 hr by FRET assay
measurement.name: IC50 (nM)

[[record]]
compound = "CC(C)C[C@H](NC(=O)OC1(Cc2ccccc2)CCN(C(=O)OC(C)(C)C)CC1)C(=O)N[C@@H](C[C@@H]1CCNC1=O)C(O)S(=O)(=O)O (stereo not given in full)"
unit_annotation = "nM"
measured_value = 700

[[record]]
compound = "CC(C)C[C@H](NC(=O)OC1(Cc2ccccc2)CCN(C(=O)OC(C)(C)C)CC1)C(=O)N[C@H](C=O)C[C@@H]1CCNC1=O"
unit_annotation = "nM"
measured_value = 800

[[record]]
compound = "CC(C)C[C@H](NC(=O)OC1(Cc2ccccc2)CCN(S(C)(=O)=O)CC1)C(=O)N[C@@H](C[C@@H]1CCNC1=O)C(O)S(=O)(=O)O (stereo not given in full)"
unit_annotation = "nM"
measured_value = 900

[[record]]
compound = "CC(C)C[C@H](NC(=O)OC1(Cc2ccccc2)CCN(S(C)(=O)=O)CC1)C(=O)N[C@H](C=O)C[C@@H]1CCNC1=O"
unit_annotation = "nM"
measured_value = 700

[[record]]
compound = "CC(C)C[C@H](NC(=O)OC1CCN(S(C)(=O)=O)CC1)C(=O)N[C@H](C=O)C[C@@H]1CCNC1=O"
unit_annotation = "nM"
measured_value = 700


Origin of measurements: ChEMBL document CHEMBL4196085
